- assay.protocol: Cytotoxicity against human PBMC after 48 hrs by trypan blue exclusion assay
- Type: toxicity, cell-based
- assay.context: PBMC (peripheral blood mononuclear cells), read-out: LD50
Kindly state CC50 at 48 h for each of the entries shown.
Write the numeric value and follow it with the unit.

Solved entries (count: 3):
compound.smiles | CC50 at 48 h
Cc1ccc(S(=O)(=O)Nc2ccc(C(=O)/C=C/c3ccc(O)cc3)cc2)cc1 | 270 µM
CS(=O)(=O)Nc1ccc(C(=O)/C=C/c2ccccc2)cc1 | 134 µM
Cc1ccc(S(=O)(=O)Nc2ccc(C(=O)/C=C/c3cccc(Br)c3)cc2)cc1 | 80 µM

Answer for every listed entry: what is its CC50 at 48 h? The entries follow.
1. O=C(/C=C/c1ccc(Cl)cc1)c1ccc(NS(=O)(=O)c2ccccc2)cc1
2. Cc1ccc(S(=O)(=O)Nc2ccc(C(=O)/C=C/c3ccccc3)cc2)cc1
3. Cc1ccc(S(=O)(=O)Nc2ccc(C(=O)/C=C/c3ccc(Br)cc3)cc2)cc1
4. O=C(/C=C/c1ccc(Br)cc1)c1ccc(NS(=O)(=O)c2ccccc2)cc1
5. Cc1ccc(S(=O)(=O)Nc2ccc(C(=O)/C=C/c3ccc(C(C)C)cc3)cc2)cc1
6. COc1ccc(/C=C/C(=O)c2ccc(NS(C)(=O)=O)cc2)cc1
7. Cc1ccc(/C=C/C(=O)c2ccc(NS(=O)(=O)c3ccc(C)cc3)cc2)cc1
8. O=C(/C=C/c1ccc(F)cc1)c1ccc(NS(=O)(=O)c2ccccc2)cc1

# output
["177 µM", "335 µM", "220 µM", "265 µM", "50 µM", "194 µM", "140 µM", "217 µM"]

# input State the recorded CC50 at 48 h for this entry: CS(=O)(=O)Nc1ccc(C(=O)/C=C/c2ccc([N+](=O)[O-])cc2)cc1
# output 188 µM
